// data source = patent CN108503708A

Measured pIC50 of individual entries
molecular target: T1, hCD47-mFc (human CD47 extracellular region D1 fused to mouse IgG2a Fc) (human (homo sapiens)); test: competition ELISA: hCD47-mFc coated, fixed hCD172a-D1M1-His as competitor, antibody titrated
T1 construct: no linker is stated
pIC50: −log10 of the molar value.

binder	pIC50
S2H2-IgG4 (mouse-human chimeric antibody, human IgG4-kappa) (antibody, V domains shown, also called 人-鼠嵌合单抗S2H2) VH: QVQLQQPGAEVVKPGASVKMSCKASGYTLSSYWMHWVKQRPGQGLEWIGTIDRSDSYISYNQKFKGKATLTVDTSSGTVYMQLNSLTSEDSAVYYCTRGGPYGSKMMDNWGQGTSVTVSS VL: DIQMNQSPSSLSASLGDTITITCHASQNINVWLSWYQQKPGNIPKLLIYKASNLHTGVPSRFSGSGSGTGFTLTISSLQPEDIATYYCQQGQSYPLTFGTGTKLELKR	8.68
S4D12-IgG4 (mouse-human chimeric antibody, human IgG4-kappa) (antibody, V domains shown, also called 人-鼠嵌合单抗S4D12) VH: QVQLQQPGAELVKPGASVKMSCKASGYTFTNYWMHWVKQRPGQGLEWIGVIAPSDNYTNYNQKFQGKATLTVDTSSSTAYMQLSSLTSEDSAVYYCTKGGKYSMDYWGQGTSVTVSS VL: DVLMTQTPLSLPVSLGDQASISCRSSQSIVHSNGNTYLEWYLQKPGQSPKLLIYKVSNRFSGVPDRFSGSGSGTDFTLKISRVEAEDLGVYYCFQGSHVPFTFGSGTKLEIKR	8.41
S2C3-IgG4 (mouse-human chimeric antibody, human IgG4-kappa) (antibody, V domains shown, also called 人-鼠嵌合单抗S2C3) VH: QIQLQQSGPELVKPGASVKISCKASGYTFTDYYMHWVKQRPGQGLEWIGWINPSSGNTKYAQKFQDKATLTVATSSSTAYMQLSSLTSEDTAVYFCARREEDYFDYWGQGTLVTVSS VL: DIVMSQSPSSLAVSVGEKVTMSCKSSQSLLYPSNKKNYLTWYQQKPGQSPKLLIYWASTRESGVPDRFTGSGSGTDFTLTISSVKAEDLAVYYCQEYYAYPLSFGAGTKLEIKR	8.28
Hu5F9-G4 (humanized anti-CD47 monoclonal antibody) (antibody, human IgG4, V domains shown, Prepared after US 9017675B2; labelled IgG4; also called Hu5F9-IgG4; hu5F9-IgG4) VH: QVQLVQSGAEVKKPGASVKVSCKASGYTFTNYNMHWVRQAPGQRLEWMGTIYPGNDDTSYNQKFKDRVTITADTSASTAYMELSSLRSEDTAVYYCARGGYRAMDYWGQGTLVTVSS VL: DIVMTQSPLSLPVTPGEPASISCRSSQSIVYSNGNTYLGWYLQKPGQSPQLLIYKVSNRFSGVPDRFSGSGSGTDFTLKISRVEAEDVGVYYCFQGSHVPYTFGQGTKLEIK	8.02
